Catalogue of IC50 values
# Tested on: HTT mRNA
# Protocol details: RT-qPCR splicing assay, HTT canonical junction (CJ) and alternative junction (AJ) mRNA
# Assay type: cell-based, human
# Reported conditions: Homo sapiens, decrease in HTT canonical junction (CJ) mRNA, RT-qPCR; read-out: HTT CJ IC50

Known IC50 results, listed for orientation:
compound=Cc1cn2nc(-c3ccc4c(=O)n([C@@H]5CCNC[C@H]5F)ncc4c3)cc(C)c2n1 test_target="HTT mRNA" endpoint_result="100 to 1000 nM"
compound=Cc1cc(-c2cc3ccn(C4CCN(C5COC5)CC4)c(=O)c3cn2)cc2cn(C)nc12 test_target="HTT mRNA" endpoint_result="100 to 1000 nM"
compound=Cc1c(O)c(-c2ncc3c(=O)n(C45CCC(N)(CC4)C5)ccc3n2)cc2cn(C)nc12 test_target="HTT mRNA" endpoint_result="> 10000 nM"
compound="Cc1c(O)c(-c2ncc3c(=O)n([C@@H]4C[C@H]5C[C@@H]4CN5)ccc3n2)cc2cn(C)nc12 (stereo in doubt)" test_target="HTT mRNA" endpoint_result="> 10000 nM"
compound=CN(c1ccc2ncn(-c3cc(F)c4nn(C)cc4c3)c(=O)c2c1)C1CCNCC1 test_target="HTT mRNA" endpoint_result="> 10000 nM"
compound=CNc1cc(-c2cc(F)c3nc(C)cn3c2)cc2ncn(C3CCNCC3)c(=O)c12 test_target="HTT mRNA" endpoint_result="> 10000 nM"
compound="Cc1nc2c(C)cc(-c3ccc4c(=O)n(C5CCNC6(CC6)C5)ncc4c3)cc2o1 (centres unmarked)" test_target="HTT mRNA" endpoint_result="100 to 1000 nM"
compound=Cc1cn2nc(-c3ccc4c(c3)CCN(C3CCNCC3)C4=O)cc2c(C)n1 test_target="HTT mRNA" endpoint_result="1000 to 10000 nM"

Sample Cc1c(O)c(-c2ncc3c(=O)n([C@@H]4CC[C@@H](N)C4)ccc3n2)cc2cn(C)nc12 ; IC50 observed: 1000 to 10000 nM

IC50 reading for Cc1cn2cc(-c3cc(F)c4c(=O)n(C5CCNCC5)cnc4c3)cc(C#N)c2n1 : 1000 to 10000 nM

Lab note: measured IC50 of Cc1cn2cc(-c3cc(F)c4c(=O)n(C5CCNC6(CC6)C5)ncc4c3)cc(Cl)c2n1 (centres unmarked) was 100 to 1000 nM

get_value(item= Cc1ncc(-c2ccc3c(=O)n(C4CCNCC4)cnc3c2)cn1 , readout=IC50) returns 1000 to 10000 nM

IC50 reported for this compound Cc1cn2nc(-c3cc(F)c4c(=O)n(C5CCN(C)CC5)cnc4c3)cc(C)c2n1 : < 100 nM

Kindly note the recorded IC50 for Cc1c(O)c(-c2ccc3c(=O)n(C4CCNCC4)cc(C)c3n2)cc2cn(C)nc12 , which is 100 to 1000 nM

IC50 reading for Cc1c(O)c(-c2ccc3c(=O)n([C@H]4C[C@@H](C)N[C@@H](C)C4)ccc3n2)cc2cn(C)nc12 : 100 to 1000 nM

Looking up Cc1cc(-c2ccc3c(=O)n(C4CCNCC4)cnc3c2)cc2cn(C)nc12 , I see its IC50 listed as 100 to 1000 nM

Per the records, this compound ( Cc1cn2cc(-c3ccc4c(=O)n(C5CCNC5)ccc4n3)c(O)c(C)c2n1 (centres unmarked) ) has IC50 equal to > 10000 nM

get_value(item= Cc1nc2c(F)cc(-c3ccc4c(=O)n(C5CCN(C)CC5)cnc4c3)cc2o1 , readout=IC50) returns 1000 to 10000 nM

Reported IC50 for Cc1cn2cc(-c3cc(F)c4c(=O)n([C@H]5CCNC[C@H]5F)cnc4c3)cc(F)c2n1 was 1000 to 10000 nM

What the record says about Cc1cn2nc(-c3ccc4c(=O)n([C@@H]5CCN(C)C6(CC6)C5)ncc4n3)cc(C)c2n1 : IC50 is < 100 nM

Field IC50 (entry Cc1cn2cc(-c3cc(F)c4c(=O)n(C5CCNC5)cnc4c3)cc(F)c2n1 (centres unmarked) ) reads 1000 to 10000 nM

Documented IC50 of Cn1cc2cc(-c3ncc4c(=O)n(C56CCC(N)(CC5)C6)ccc4n3)cc(F)c2n1 : 1000 to 10000 nM

Cc1cn2nc(-c3cc(O)c4c(=O)n(C5CCNC5)cnc4c3)cc(C)c2n1 (centres unmarked) has a reported IC50 of > 10000 nM

For Cn1cc2c(n1)CCN(c1ccc3c(=O)n(C4CCNCC4)ccc3c1)C2 the compound record lists IC50 as > 10000 nM

# compound Cc1c(O)c(-c2ncc3c(=O)n(C4CCN(C)CC4)ccc3n2)cc2cn(C)nc12 ; its IC50 = 1000 to 10000 nM

Record Cc1nc2c(F)cc(-c3cc(F)c4c(=O)n(C5CCNC6(CC6)C5)ccc4c3)cc2o1 (centres unmarked) . Reported IC50: < 100 nM
